Molecular target: EP2 (Homo sapiens (Human), UniProt P43116)
Sequence (P43116 whole entry): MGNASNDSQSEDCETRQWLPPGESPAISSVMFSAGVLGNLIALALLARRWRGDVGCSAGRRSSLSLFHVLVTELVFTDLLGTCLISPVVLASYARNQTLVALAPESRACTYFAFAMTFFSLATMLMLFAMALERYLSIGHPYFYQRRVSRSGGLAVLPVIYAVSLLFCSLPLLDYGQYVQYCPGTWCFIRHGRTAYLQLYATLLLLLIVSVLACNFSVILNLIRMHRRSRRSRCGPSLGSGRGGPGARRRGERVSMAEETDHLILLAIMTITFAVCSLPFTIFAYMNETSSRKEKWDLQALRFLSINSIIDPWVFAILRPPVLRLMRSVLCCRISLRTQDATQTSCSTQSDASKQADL
Assay: hEP2 cAMP assay (SF295 glioblastoma cells, HTRF cAMP)
Settings: antagonistic activity
Text: Human tumor cell lines expressing endogenously either EP4 or EP2 are used and cAMP accumulation in cells upon PGE2 stimulation is monitored. […] As a detection method for cAMP the HTRF (homogeneous time resolved fluorescence) Cisbio kit (HTRF cAMP dynamic 2 kit 20'000 tests Cisbio Cat. #62AM4PEC) was used, which is based on a competitive immunoassay using a Cryptate-labeled anti-cAMP antibody and d2-labeled cAMP. […]
pIC50: −log10 of the molar value.
assay endpoint: pIC50

[[record]]
compound = "CSc1cc(-c2cc(NCCc3ccc4scc(C#N)c4c3)ncn2)ccc1C(=O)O"
measured_target = "EP2 (Homo sapiens (Human), UniProt P43116)"
endpoint_value = 7.30

[[record]]
compound = "CCOc1cc2ccccc2cc1CCNc1cc(-c2ccc(OC(C)(C)C(=O)O)c(OCC)c2)ncn1"
measured_target = "EP2 (Homo sapiens (Human), UniProt P43116)"
endpoint_value = 6.52

[[record]]
compound = "CCOc1cc(-c2cc(NCCc3cc4ccccc4cc3Cl)ncn2)ccc1OCC(=O)O"
measured_target = "EP2 (Homo sapiens (Human), UniProt P43116)"
endpoint_value = 6.10

[[record]]
compound = "CCc1nc(-c2cc(NCCc3ccc4ccccc4c3C)ncn2)sc1-c1noc(=O)[nH]1"
measured_target = "EP2 (Homo sapiens (Human), UniProt P43116)"
endpoint_value = 6.94

[[record]]
compound = "CCOc1cc(-c2cc(NCCc3cc4ccccc4cc3Cl)ncn2)ccc1C(=O)O"
measured_target = "EP2 (Homo sapiens (Human), UniProt P43116)"
endpoint_value = 6.25

[[record]]
compound = "CCOc1cc(-c2cc(NCCc3ccc4cc[nH]c4c3)ncn2)ccc1OC(C)C(=O)O (centres unmarked)"
measured_target = "EP2 (Homo sapiens (Human), UniProt P43116)"
endpoint_value = 6.70

[[record]]
compound = "CCOc1cc(-c2cc(NCCc3cc4ccccc4cc3OC)ncn2)sc1C(=O)O"
measured_target = "EP2 (Homo sapiens (Human), UniProt P43116)"
endpoint_value = 7.17

[[record]]
compound = "CCOc1cc(-c2cc(NCCc3cc(F)c4sccc4c3)ncn2)ccc1-c1nnn[nH]1"
measured_target = "EP2 (Homo sapiens (Human), UniProt P43116)"
endpoint_value = 6.43

